biological target: OTU domain-containing protein 3 (Homo sapiens) (UniProt Q5T2D3); assay: Validation of screening hits, potency titration, in vitro enzymatic, OTU domain-containing protein 3 DUB inhibitors (AID 1645868); conditions: purified OTUD3, ubiquitin-rhodamine cleavage fluorescence, 2 h
Sequence (Q5T2D3 whole entry, looked up, the tested form may be a part): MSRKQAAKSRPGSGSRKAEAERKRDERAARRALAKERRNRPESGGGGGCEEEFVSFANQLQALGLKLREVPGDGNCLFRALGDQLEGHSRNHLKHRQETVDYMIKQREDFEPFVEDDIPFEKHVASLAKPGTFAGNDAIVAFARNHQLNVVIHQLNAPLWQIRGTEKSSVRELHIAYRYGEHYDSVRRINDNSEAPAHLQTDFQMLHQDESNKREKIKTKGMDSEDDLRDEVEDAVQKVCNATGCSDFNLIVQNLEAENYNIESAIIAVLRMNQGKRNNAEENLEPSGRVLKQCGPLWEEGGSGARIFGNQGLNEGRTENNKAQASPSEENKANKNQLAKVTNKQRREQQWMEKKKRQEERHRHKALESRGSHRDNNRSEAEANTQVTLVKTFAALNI
Activity calls are given as the source filed them.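 How the source made its calls: active means maximal percent inhibition of the deubiquitinase OTUD3 of at least 30% across the tested doses; inactive means the rest.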
Classes used: active, inactive

>>> df
                                   compound  class_assignment
0  CC(=O)c1ccc(NC(=O)CSc2nc(-c3ccccc3)nc3c2COC(C)(C)C3)cc1          inactive
1  Cc1cccc(NC(=O)CSc2ncnc3c2sc2nc(CC(C)C)c4c(c23)CCC4)c1          inactive
2     COc1cc(O)c2c(=O)c(-c3ccc(O)cc3)coc2c1          inactive
3           Cc1ccc(C(=O)Nc2ccc3nccnc3c2)cc1          inactive
4  COc1ccc(C(=O)NCCc2nnc3ccc(SCC(=O)NCc4ccc(F)cc4)nn23)cc1            active
5  CC(C)N1CC2CN(C(=O)c3ccccc3)CCN2Cc2ccccc21 (stereo not given)          inactive
6  O=C(COc1cccc(-n2cnnn2)c1)Nc1ccc2c(c1)OCCO2          inactive
7  Cc1cccc(C(=O)N2CCc3cc(-c4nc(NC(=O)CNc5ccccc5)sc4C)ccc32)c1          inactive
8        CSc1ccccc1C(=O)Nc1nc(-c2ccncc2)cs1            active
9  CCN(Cc1ccccc1)S(=O)(=O)c1ccc(C(=O)Nc2ccc3c(c2)OCCO3)cc1          inactive
